target: ROCK1 (Homo sapiens, UniProt Q13464)
Sequence (Q13464 whole entry): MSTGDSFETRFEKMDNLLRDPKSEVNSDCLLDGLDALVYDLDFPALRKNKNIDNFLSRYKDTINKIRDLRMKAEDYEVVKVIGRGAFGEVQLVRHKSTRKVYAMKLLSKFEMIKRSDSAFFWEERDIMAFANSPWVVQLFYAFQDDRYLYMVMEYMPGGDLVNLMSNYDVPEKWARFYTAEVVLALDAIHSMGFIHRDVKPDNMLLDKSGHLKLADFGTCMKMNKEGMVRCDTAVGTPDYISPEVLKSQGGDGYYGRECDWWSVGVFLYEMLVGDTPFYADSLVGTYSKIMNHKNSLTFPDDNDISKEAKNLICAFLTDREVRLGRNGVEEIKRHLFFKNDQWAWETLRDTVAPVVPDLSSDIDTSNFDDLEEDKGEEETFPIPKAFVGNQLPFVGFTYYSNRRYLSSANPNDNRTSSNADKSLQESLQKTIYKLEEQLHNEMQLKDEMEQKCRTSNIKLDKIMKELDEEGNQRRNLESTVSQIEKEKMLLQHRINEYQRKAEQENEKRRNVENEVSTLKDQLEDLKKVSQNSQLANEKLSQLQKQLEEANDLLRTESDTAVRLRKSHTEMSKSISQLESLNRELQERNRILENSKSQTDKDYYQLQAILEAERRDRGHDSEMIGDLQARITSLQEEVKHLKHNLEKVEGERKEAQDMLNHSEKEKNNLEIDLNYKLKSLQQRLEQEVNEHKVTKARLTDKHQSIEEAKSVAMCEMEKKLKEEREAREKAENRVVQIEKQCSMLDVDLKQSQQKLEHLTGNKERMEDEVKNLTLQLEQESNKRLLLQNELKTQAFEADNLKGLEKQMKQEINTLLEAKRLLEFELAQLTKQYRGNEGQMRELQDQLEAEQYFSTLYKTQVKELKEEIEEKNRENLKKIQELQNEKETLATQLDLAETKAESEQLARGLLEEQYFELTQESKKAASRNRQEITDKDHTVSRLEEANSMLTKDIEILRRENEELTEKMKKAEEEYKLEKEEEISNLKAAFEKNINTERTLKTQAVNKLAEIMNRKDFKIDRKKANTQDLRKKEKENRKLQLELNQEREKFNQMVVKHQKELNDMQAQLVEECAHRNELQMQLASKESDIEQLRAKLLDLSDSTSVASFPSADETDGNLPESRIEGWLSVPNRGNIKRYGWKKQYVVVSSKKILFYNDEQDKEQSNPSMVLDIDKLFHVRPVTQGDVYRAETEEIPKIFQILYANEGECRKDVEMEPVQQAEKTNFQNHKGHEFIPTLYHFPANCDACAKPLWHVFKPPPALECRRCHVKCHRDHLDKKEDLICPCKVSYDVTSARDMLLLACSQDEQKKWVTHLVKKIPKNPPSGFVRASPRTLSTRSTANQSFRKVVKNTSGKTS
measured attribute: Kd (nM)

molecular string	reading unit	test result
CN(C)CCOc1ccc2c(c1)CN(c1nccc(-c3nccc(/C=C/c4ccncc4)n3)n1)C2	nM	2400

A: COc1ccc2c(c1)CN(c1nccc(-c3nccc(/C=C/c4ccnc5[nH]ccc45)n3)n1)C2
B: N#Cc1ccc2c(c1)CN(c1nccc(-c3nccc(/C=C/c4ccncc4)n3)n1)C2
Endpoint returns whichever of A and B has the numerically higher Kd. Please respond with the label that marks your chosen entry.
A

---

For reference, pKd measured on ROCK2 (Homo sapiens, UniProt O75116):
pKd: −log10 of the molar value.
measured attribute: pKd

A: COc1ccc2c(c1)CN(c1nccc(-c3nccc(/C=C/c4ccnc5[nH]ccc45)n3)n1)C2
B: COc1ccc2c(c1)CN(c1nccc(-c3nccc(/C=C/c4ccncc4)n3)n1)C2
Lab note: check whether A or B has the lower measured pKd. Please respond with the label that marks your chosen entry.
A
(A: 5.74, B: 6.85)
